Cited source: PubChem BioAssay (NCI)

System: IGROV1 ovarian
Test: NCI-60 one-dose screen, 48 h (100 = growth as untreated, 0 = no growth, -100 = all killed)
Conditions: 10 µM unless noted
Description: Growth inhibition of the IGROV1 human tumor cell line is measured as a screen for anti-cancer activity. Cells are grown in 96 well plates and exposed to the test compound for 48 hours. Compounds are tested at a single concentration, which is 10^-5 M for most compounds. The reported endpoint is percent growth (GI% or GIPRCNT), where numbers from 0 - 100% represent growth inhibition, and numbers from -100% - 0 represent cell death. For example, a value of 40 represents 60% growth inhibition. […]
This is part of a sample that, as a whole, favours compounds with a hit. Of some 83,000 tested, about 20% had one in any assay.
assay.readout: growth (%)
Report only the number, with the unit % understood.

Query: Query the reported growth for IGROV1 ovarian; item: CCCCNc1nc(NC(C)(C)C)nc(NC(C)(C)C)n1
Reply: 51.3

Query: Notebook: pull reported growth for IGROV1 ovarian, entry CCOC(=O)C1(C(=O)OCC)N=C(c2ccccc2)C=C1c1ccccc1
Reply: 92.4

Query: Short answer please: growth, IGROV1 ovarian, entry C1=CC2(C=C1)OC21CCC2(C=CC3(C2)OC3C2CCCCC2)CC1 (stereo unspecified)
Reply: 107

Query: Query growth on IGROV1 ovarian for O=C(Nc1ccc(N2CCNCC2)cc1)c1[nH]ncc1Nc1cc(Oc2ccccc2)ncn1
Reply: 19.7

Query: API: value(readout=growth, system=IGROV1 ovarian) for record O=c1oc2ccc(F)cc2c(=O)n1-c1ccc(I)cc1F
Reply: 17.2

Query: Provide the documented growth with IGROV1 ovarian as the system for CCN1CCN(C(=S)SCC(=O)Nc2nc3ccc(C)cc3s2)CC1
Reply: 72

Query: Notebook entry, IGROV1 ovarian assay: growth of COc1cc(/C=C2\CN(C)C/C(=C\c3cc(CN4CCCC4)c(O)c(OC)c3)C2=O)cc(CN2CCCC2)c1O = ?
Reply: 82

Query: Find growth (IGROV1 ovarian) for the entry Cc1ccc(C)c(-c2csc(Nc3ccc(C)c(C)c3)n2)c1
Reply: 81

Query: Request body: readout growth, system IGROV1 ovarian, query COc1cc(C#N)cc2[nH]c(=O)oc12 . Return the value.
Reply: 105

Query: So what growth did COc1ccc(/C=C2\SC(=Nc3ccccc3)NC2=O)cc1 get with IGROV1 ovarian?
Reply: -78.2

Query: I'm curious: which growth was measured for COc1ccc(N(C)c2nc(N)nc3sc4c(c23)CCCC4)cc1 tested on IGROV1 ovarian?
Reply: 17.2

###

Kindly state growth for each of the entries shown.
Tested on: RXF 393 renal
Assay: NCI-60 one-dose screen, 48 h (100 = growth as untreated, 0 = no growth, -100 = all killed)
Details: 10 µM unless noted
Compounds without any hit were thinned out: in the full panel of roughly 83,000, 20% have a hit.
Provide the reading as a plain figure in %.

Query: Query the reported growth for RXF 393 renal; item: NC(CCc1nc2ccccc2c(=O)[nH]1)C(=O)O (centres undefined)
Reply: 115

Query: Form: Entry = COc1cc(OC)cc(N2C(=O)N(Cc3ccc(C(C)(C)C)cc3)c3ccccc3S2(=O)=O)c1 | System = RXF 393 renal | growth = ____
Reply: 60.2

Query: Record COc1cc(/C=C2\CCC/C(=C\c3cc(CN4CCCCC4)c(O)c(OC)c3)C2=O)cc(CN2CCCCC2)c1O : what is its growth with RXF 393 renal?
Reply: 61.7

Query: Provide the documented growth with RXF 393 renal as the system for COc1cc(C#N)cc2[nH]c(=O)oc12
Reply: 128

Query: What value of growth on RXF 393 renal does O=c1c2cc(F)cc(Cl)c2sc2c(Cl)nc3ccccc3c12 have?
Reply: 100

Query: What growth appears in the records for this compound with RXF 393 renal? Cc1cc2c(c(C)c1Cl)C(=O)/C(=C/c1cccc([N+](=O)[O-])c1)O2
Reply: 107

Query: Form entry - test system: RXF 393 renal; read-out: growth; compound: O=C1C(=O)c2c(ccc3ccccc23)-c2ccccc21
Reply: 22

Query: Record CCCc1c(C)c2sc(=O)[nH]c2[nH]c1=O : what is its growth with RXF 393 renal?
Reply: 107

Query: Short answer please: growth, RXF 393 renal, entry NC(CCl)=NCCC[C@H](N)C(=O)O
Reply: 100

Query: Look up growth with RXF 393 renal for this compound: O=C1/C(=C/c2ccc(O)cc2)COc2ccc(O)cc21
Reply: 125

Query: // fetch RXF 393 renal growth for Nc1ccn(C2O[C@H](CO)[C@@H](O)[C@H]2O)c(=O)n1 (some centres undefined)
Reply: 50.1

Query: Query for RXF 393 renal: what growth does the record show for NC1C(N)C(N)C1N (centres undefined) ?
Reply: 125

Query: Query for RXF 393 renal: what growth does the record show for CCCCC1CCc2cccc3c(SCC(=O)N(C)c4ccc(Cl)cc4)cc[n+]1c23 (centres undefined) ?
Reply: 128

Query: Lookup: growth / RXF 393 renal / CN1C(=O)N(C)C2C1NN=c1s/c(=C\c3c[nH]c4ccccc34)c(=O)n12 (centres undefined)
Reply: 44.5

###

Tested on: M14 melanoma
Test: NCI-60 one-dose screen, 48 h (100 = growth as untreated, 0 = no growth, -100 = all killed)
Conditions: 10 µM unless noted
The panel holds about 83,000 compounds, 20% with a hit somewhere; the sample as a whole holds those more often.
Could you please report measured growth for the items listed next?
Provide the reading as a plain figure in %.

Query: Report growth for CC(=O)Nc1nc2c(s1)CCc1c-2cn(S(=O)(=O)c2ccccc2)c1-c1ccccc1 tested on M14 melanoma.
Reply: 36.9

Query: Could you share what growth was measured for COc1ccc(-c2cn3c(C(=O)Nc4ccccc4Cl)c(-c4ccccc4)c4c3n2CCCC4)cc1 , tested on M14 melanoma?
Reply: 73.6

Query: Param readout= growth; system= M14 melanoma; entry= C#CCn1cc(C=C2C(=O)NC(=O)NC2=O)c2cc(Cl)ccc21 ; returns value.
Reply: 85.1

Query: Request: growth, test system M14 melanoma, entry CCOc1ccccc1CN1CCc2nc3cc(C(C)(C)C)[nH]n3c(=O)c2C1
Reply: 91.6

Query: Return growth measured with M14 melanoma given this compound: COc1cc(/C=C2\CCC/C(=C\c3cc(CN4CCOCC4)c(O)c(OC)c3)C2=O)cc(CN2CCOCC2)c1O
Reply: 36.7

Query: Item: O=C(CSc1nc2ccccc2c(=O)n1-c1ccccc1)Nc1ccc(C(=O)/C=C/c2ccc(Cl)cc2)cc1 Test system: M14 melanoma Read-out: growth Value: ?
Reply: 101

Query: Write down the reported growth of N#CC(C#N)=Cc1c(-c2ccccc2)[nH]c2ccccc12 , test system: M14 melanoma.
Reply: 27.7

Query: # query: growth | item N#Cc1c(N)nc2c(c1N)C(c1ccc(F)cc1)c1ccc(N)cc1O2 (centres undefined) | system: M14 melanoma
Reply: 111

Query: GET /values?readout=growth&system=M14 melanoma&item= CCOC(=O)c1cnc2ccc(Cl)cc2c1NCCCN(C)C
Reply: 2.88

Query: Please tell me: growth of COc1cc2nc(NC3CCC3)nc(NC3CCN(C(C)C)CC3)c2cc1OC , system M14 melanoma?
Reply: -65.8

Query: # returns recorded growth (system: M14 melanoma) for Cc1ccc(C)c(-c2csc(Nc3ccc(C)c(C)c3)n2)c1
Reply: -81.3

Query: Observed growth on M14 melanoma for Cc1cccc2c(=O)c3c(sc12)c(NCCN)nc1ccccc13 , please.
Reply: -75.7

Query: Recall the recorded growth for CCn1c(Cc2ccccc2Nc2c(Cl)cccc2Cl)nnc1SCC(=O)NN1C(=O)/C(=C/c2cccc(OC)c2OC)SC1=S with M14 melanoma and state it.
Reply: 103

Query: Given the entry CCOC(=O)C1(Cc2ccccc2)CCN(Cc2cccc(OC)c2O)CC1 , what growth was observed with M14 melanoma?
Reply: 2.78

###

Test system: CAKI-1 renal
Assay: NCI-60 one-dose screen, 48 h (100 = growth as untreated, 0 = no growth, -100 = all killed)
Details: 10 µM unless noted
About 83,000 compounds went through this panel and 20% of them were active in at least one assay; those are over-represented in the sample as a whole.
assay.readout: growth (%)
Could you give me the number in %? Just the number is fine.

Query: For COc1ccc(C(=O)C2CC2c2ccc(Cl)cc2)cc1 (centres undefined) , what is its reported growth?
Reply: 87.9

Query: Which growth reading was recorded for the compound N#Cc1c(N)nc2c(c1N)C(c1ccc(F)cc1)c1ccc(N)cc1O2 (centres undefined) ?
Reply: 91.3

Query: Name the recorded growth for COC(=O)c1ccc(NC(=O)CSc2nc3ccccc3c(=O)n2-c2ccccc2)cc1 .
Reply: 91.5

Query: Which growth value belongs to Cc1ccc(N=NC2C(=O)N(c3ccc(Cl)cc3)N(c3ccc(Cl)cc3)C2=O)cc1 ?
Reply: 92.4

Query: Reported growth, compound COc1cccc(-c2nn(C)c3sc(C(=O)NCCN4CCN(c5ccccc5F)CC4)cc23)c1 : ____
Reply: 68

Query: Fill in the blank: the reported growth of Oc1c(C(Nc2ccccn2)c2cccc(Oc3ccccc3)c2)ccc2cccnc12 (centres undefined) is ____.
Reply: -90.3

Query: Looking for the measured growth of CCOC(=O)C(CC(=O)O)=C(C(=O)OCC)C(=O)OCC , can you help?
Reply: 99.6

Query: Dear colleague, I am looking for the recorded growth of the following compound: COC(=O)[C@@H]1CCCN1C(=O)[C@H]1CCCN1C(=O)[C@@H](Cc1c[nH]c2ccccc12)NC(=S)Nc1cc(C(F)(F)F)cc(C(F)(F)F)c1
Reply: 22

Query: Entry under review: COc1cc(C(C)n2cc(-c3ccccc3)nn2)ccc1OC1CCCC1 (centres undefined) . Reported growth?
Reply: 49.6
